Biological target: T1, 4H3843-bN
T1 chain: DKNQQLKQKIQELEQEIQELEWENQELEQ
Assay: two-hybrid library CCNG1;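 also: natural log of median RNA to DNA barcode read ratio; higher means stronger binding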
# maps each entry to its interaction score
// response body must contain only the number

// below: answered binders
DKNQQLKQENQELKQEIQELEWKIQELKQ [4H3782-bN]    0.479
DKIQQLKQENQELEQEIQELKWEIQELEQ [4H2697-bN]    -0.916
DKNQQLKQEIQELEQENQELEWKIQELKQ [4H3606-bN]    -0.0433
DENQQLKQKIQELEQKNQELEWKIQELEQ [4H1845-bN]    -0.731
DENQQLEQKIQELKQENQELKWEIQELEQ [4H1369-bN]    -1.02

In one line, give reported interaction score of the entry DENQQLEQENQELEQKIQELKWEIQELEQ [4H1193-bN] .
-1.2

In one line, give reported interaction score of the entry DEIQQLEQKIQELKQEIQELKWENQELEQ [4H331-bN] .
-0.476
